Tested on: KRAS-mutant PDC tumor spheroid with HUVEC/MSC, viability;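 note: spheroids exposed to agents for seven days before reading; 100% = DMSO vehicle wells so lower means fewer viable cells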
Test: Anticancer human tumor 327498-153-R-J2-PDC patient-derived uterine carcinosarcoma cell line growth inhibition [KRAS2]
Settings: second compound 3.16 µM; first compound 0.0316 µM; hits give low values
measurement-label: viability, T/C (%)
The reply should be a number in %, with the unit left off.

Past entries and their recorded results:
CC1(C)CCC(CN2CCN(c3ccc(C(=O)NS(=O)(=O)c4ccc(NCC5CCOCC5)c([N+](=O)[O-])c4)c(Oc4cnc5[nH]ccc5c4)c3)CC2)=C(c2ccc(Cl)cc2)C1 + CC1OCC2(CCN(c3cnc(Sc4ccnc(N)c4Cl)c(N)n3)CC2)C1N : 32.6
COC(=O)c1ccc2c(C(=Nc3ccc(N(C)C(=O)CN4CCN(C)CC4)cc3)c3ccccc3)c(O)[nH]c2c1 + C=CC(=O)N1CCN(c2nc(=O)n(-c3c(C)ccnc3C(C)C)c3nc(-c4c(O)cccc4F)c(F)cc23)C(C)C1 : 42.4
COC(=O)c1ccc2c(C(=Nc3ccc(N(C)C(=O)CN4CCN(C)CC4)cc3)c3ccccc3)c(O)[nH]c2c1 + CNCc1ccccc1-c1csc(C(C)Nc2nc(C)nc3cc(OC)c(OC)cc23)c1 : 0.1
CCN1CCN(Cc2ccc(Nc3ncc(F)c(-c4cc(F)c5nc(C)n(C(C)C)c5c4)n3)nc2)CC1 + C=CC(=O)N1CCN(c2nc(=O)n(-c3c(C)ccnc3C(C)C)c3nc(-c4c(O)cccc4F)c(F)cc23)C(C)C1 : 33.8

Problem: # return recorded viability, T/C for entry CC(=O)OC12COC1CC(O)C1(C)C(=O)C(O)C3=C(C)C(OC(=O)C(O)C(NC(=O)OC(C)(C)C)c4ccccc4)CC(O)(C(OC(=O)c4ccccc4)C21)C3(C)C (centres undefined) + C=CC(=O)N1CCN(c2nc(OCC3CCCN3C)nc3c2CCN(c2cccc4cccc(C)c24)C3)CC1CC#N
Solution: 6.27

Problem: Query viability, T/C for CC1COCCN1c1cc(-c2ccnn2C)c2ccnc(-c3ccn[nH]3)c2n1 (centres undefined) + C=CC(=O)N1CCN(c2nc(OCC3CCCN3C)nc3c2CCN(c2cccc4cccc(C)c24)C3)CC1CC#N
Solution: 0.63

Problem: Write down viability, T/C measured for item CC(=O)Nc1cccc(-n2c(=O)n(C3CC3)c(=O)c3c(Nc4ccc(I)cc4F)n(C)c(=O)c(C)c32)c1 + C=CC(=O)N1CCN(c2nc(=O)n(-c3c(C)ccnc3C(C)C)c3nc(-c4c(O)cccc4F)c(F)cc23)C(C)C1
Solution: 15.3

Problem: Determine from records and report viability, T/C for CC1(C)CCC(CN2CCN(c3ccc(C(=O)NS(=O)(=O)c4ccc(NCC5CCOCC5)c([N+](=O)[O-])c4)c(Oc4cnc5[nH]ccc5c4)c3)CC2)=C(c2ccc(Cl)cc2)C1 + C=CC(=O)N1CCN(c2nc(=O)n(-c3c(C)ccnc3C(C)C)c3nc(-c4c(O)cccc4F)c(F)cc23)C(C)C1
Solution: 52.6

Problem: Return value of viability, T/C for input CC(=O)OC12COC1CC(O)C1(C)C(=O)C(O)C3=C(C)C(OC(=O)C(O)C(NC(=O)OC(C)(C)C)c4ccccc4)CC(O)(C(OC(=O)c4ccccc4)C21)C3(C)C (centres undefined) + CC1OCC2(CCN(c3cnc(Sc4ccnc(N)c4Cl)c(N)n3)CC2)C1N , no commentary.
Solution: 6.18

Origin of the recorded values: PubChem BioAssay AID1963867
